# credit: the supplement of paper PMC12667976

This section presents variants with their documented AIRE transcriptional activation functional score values.
B1: library; numbered along this chain (parent)
chain: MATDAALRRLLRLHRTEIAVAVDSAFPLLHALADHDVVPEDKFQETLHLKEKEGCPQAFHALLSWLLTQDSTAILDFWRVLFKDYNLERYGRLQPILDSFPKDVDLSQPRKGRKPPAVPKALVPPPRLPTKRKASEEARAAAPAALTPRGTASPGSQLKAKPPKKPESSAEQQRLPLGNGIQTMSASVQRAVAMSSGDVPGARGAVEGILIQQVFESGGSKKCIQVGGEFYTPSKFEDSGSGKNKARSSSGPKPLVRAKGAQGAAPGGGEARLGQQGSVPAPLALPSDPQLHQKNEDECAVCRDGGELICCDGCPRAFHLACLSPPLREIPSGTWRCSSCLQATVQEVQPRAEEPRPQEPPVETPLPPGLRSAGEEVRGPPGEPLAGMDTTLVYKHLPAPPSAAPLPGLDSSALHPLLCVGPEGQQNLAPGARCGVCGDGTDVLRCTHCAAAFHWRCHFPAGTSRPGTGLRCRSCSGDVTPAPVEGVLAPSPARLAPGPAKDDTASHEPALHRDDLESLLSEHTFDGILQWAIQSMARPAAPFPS

variants of: B1; test: AIRE transcriptional activation functional score (insulin promoter-GFP; nonsense median 0, synonymous median 1) (normalised score); higher = higher AIRE activity (more reporter activation); conditions: with insulin promoter-GFP reporter in HEK293
MEASURED_PROPERTY: AIRE transcriptional activation functional score

change=F459G recorded_measurement=0.834
change=A144N recorded_measurement=0.39
change=D442I recorded_measurement=-0.0637
change=Q108L recorded_measurement=0.0593
change=L97C recorded_measurement=0.164
change=Q275W recorded_measurement=1.74
change=V226P recorded_measurement=1.09
change=A403M recorded_measurement=1.38
change=A496P recorded_measurement=0.91
change=R336N recorded_measurement=1.03
change=A281I recorded_measurement=0.957
change=S220V recorded_measurement=0.743
change=G150T recorded_measurement=0.661
